Attribution: patent US20110091971A1

Tested on: H1 or H9 human embryonic stem cells
Assay: Activin A bioassay: differentiation of human embryonic stem cells to definitive endoderm, cell number and SOX17 intensity by high content analysis (96-well, four days)
Type: cell-based
Conditions: supernatant concentration 10x, assay dilution 1:20; control = R&D Sys Activin A 100 ng/ml on same plate
The recorded Sox 17 Intensity % of control of each item maps onto one of these classes: band 1 (below 2%), band 2 (2% to below 10%), band 3 (10% or more)

Molecule	Assigned label
ACTN55: activin A variant peptide, SEQ ID 56 (protein) GLECDGKVNICCKKQSFGQTKDIGWNDWIIAPSGYHGGGCTGECPSHIAGTSGSSLSFHSTVINHYRMRGHSPWANLKSCCSPTKLRPMSMLYYDDGQNIIKKDIQGMVVEECGCT	band 1

Exercise: read the entry ACTN31: activin A variant peptide, SEQ ID 32 (protein) GLECDGKVNTCCKKQLFVSFKDIGWNDWIIAPSGYHANHCSGKCPSHIAGTSGSSLSFHSTVINHYRMRGHSPFSDMGSCCIPTKLRPMSMLYYDDGQNIIKKDIQNMIVEECGCS and state which class it falls under. band 3

Exercise: read the entry ACTN80: activin A variant peptide, SEQ ID 81 (protein) GLECDGKVNICCKKQSFGQTKDIGWNDWIIAPSGYHGGGCSGECPSHIAGTSGSSLSFHSTVINHYRMRGHSPWANLKSCCAPTKLRPMSMLYYDDGQNIIKKDIQNMKVEECGCV and state which class it falls under. band 1

Exercise: read the entry ACTN12: activin A variant peptide, SEQ ID 13 (protein) GLECDGKVNYCCKKQNFVSFKDIGWNDWIIAPSGYHANECSGLCPSHIAGTSGSSLSFHSTVINHYRMRGHSPFSQMGSCCIPTKLRPMSMLYYDDGQNIIKKDIQNMIVEECGCS and state which class it falls under. band 3
